# System: BDF1 mice, Lewis lung carcinoma iv, survival T/C
# protocol: NCI In Vivo Anticancer Drug Screen. Data for tumor model Lewis Lung Carcinoma (intravenous) in B6D2F1 (BDF1) mice
# study-conditions: endpoint: median survival time; dose: 3.13 mg/kg/injection; schedule: Q01DX009 (ip); vehicle: saline with Tween-80; higher = longer survival
Inconclusive results and toxic doses are left out.
experimental-readout: T/C

>>> readout_value("Cn1cnc([N+](=O)[O-])c1Sc1nc(N)nc2c1ncn2C1OC(CO)C(O)C1O (configuration not stated)")
"105 % of control"
>>> readout_value("COc1cc(O)c2c(O)c3c(c4c2c1[C@]1(C4)C(C)=CCCC1(C)C)[C@H](O)[C@@]1(O)CC(=O)C(C(N)=O)=C(O)[C@@]1(O)C3=O")
"100 % of control"
>>> readout_value("NC(N)=NC(N)=Nc1ccc(-c2ccc(N=C(N)N=C(N)N)cc2)cc1")
"99 % of control"
>>> readout_value("COC(=O)c1cc2cc3c(c(O)c2c(=O)o1)OC1(Cc2c(O)c4c(c(O)c2O1)C(=O)C(OC)CC4=O)CC3O (configuration not stated)")
"102 % of control"
>>> readout_value("OCCN1CCN(CC/C=C2/c3ccccc3Sc3ccc(C(F)(F)F)cc32)CC1")
"97 % of control"
>>> readout_value("Nc1nc(N)c2c(Cl)c(CNc3ccc(Cl)c(Cl)c3)ccc2n1")
"102 % of control"

For the next question, use this molecule.
Please give the documented T/C of COC(=O)C(F)C(Br)C(=O)OC (configuration not stated)
95 % of control
